Entries and their measured GI50 follow.
Tested on: ACHN renal
Experiment: NCI tumour cell line growth inhibition, 48 h

structure-smiles	GI50
COc1ccc(C(=O)Cn2c(C(=O)c3ccc(OC)cc3)nc3ccccc32)cc1	6.58 µM
O=C(/C=C/c1ccco1)c1ccc(Nc2nc(Nc3ccc(F)cc3)nc(Nc3ccc(Cl)cc3)n2)cc1	> 45.2 µM
Oc1ccc2ccccc2c1C=NCCCN=Cc1c(O)ccc2ccccc12	5.73 µM
CN(C)CCNC(=O)c1ccc(Nc2nc3ccccc3c3occc23)cc1	2.54 µM
O=[N+]([O-])c1ccc(N2CCN(Cc3ccccc3)CC2)c2c1no[n+]2[O-]	0.85 µM

----------
Test system: UO-31 renal
Test: NCI tumour cell line growth inhibition, 48 h
The entries below come with measured GI50 values attached.

compound	GI50
CCc1ccc(-c2nnc(COc3ccc(-c4nc5ccc(C)cc5[nH]4)cc3OC)o2)cc1	1.63 µM
CS(=O)(=O)c1ccc(Oc2cc(F)cc(C#N)c2)c2c1[C@H](O)[C@H](F)[C@@H]2F	> 100 µM
CCNC(=O)C[C@@H]1N=C(c2ccc(Cl)cc2)c2cc(OC)ccc2-n2c(C)nnc21	0.659 µM
O=C(CCN1CCN(c2cccc(Cl)c2)CC1)N1CCc2c([nH]c3ccccc23)C1c1cccnc1 (centres undefined)	4.7 µM
CCCCCCCCCCCCN1C(C)=CS/C1=C\C=C\c1scc(C)[n+]1CCCCCCCCCCCC	2.4 µM
COc1ccc(-c2ccc(C3CC(c4ccc(O)cc4)=NN3)o2)c([N+](=O)[O-])c1 (centres undefined)	50.3 µM
COc1ccc(C(=O)Cn2c(C(=O)c3ccc(OC)cc3)nc3ccccc32)cc1	6.27 µM
C=C1C(=O)O[C@H]2[C@H]1CC/C(COC(=O)C(=O)c1c[nH]c3ccccc13)=C\CC[C@@]1(C)O[C@@H]21	1.84 µM
Nc1c(C(=O)Nc2ccccc2)sc2nc3c(cc12)CCCCCC3	0.945 µM

Origin of the recorded values: PubChem BioAssay (NCI)
